# measured on: Munc13-4 (Homo sapiens, UniProt Q70J99)
# Construct: gene UNC13D; His6-tagged human Munc13-4 protein produced in insect Sf9 cells
# Sequence (Q70J99 whole entry): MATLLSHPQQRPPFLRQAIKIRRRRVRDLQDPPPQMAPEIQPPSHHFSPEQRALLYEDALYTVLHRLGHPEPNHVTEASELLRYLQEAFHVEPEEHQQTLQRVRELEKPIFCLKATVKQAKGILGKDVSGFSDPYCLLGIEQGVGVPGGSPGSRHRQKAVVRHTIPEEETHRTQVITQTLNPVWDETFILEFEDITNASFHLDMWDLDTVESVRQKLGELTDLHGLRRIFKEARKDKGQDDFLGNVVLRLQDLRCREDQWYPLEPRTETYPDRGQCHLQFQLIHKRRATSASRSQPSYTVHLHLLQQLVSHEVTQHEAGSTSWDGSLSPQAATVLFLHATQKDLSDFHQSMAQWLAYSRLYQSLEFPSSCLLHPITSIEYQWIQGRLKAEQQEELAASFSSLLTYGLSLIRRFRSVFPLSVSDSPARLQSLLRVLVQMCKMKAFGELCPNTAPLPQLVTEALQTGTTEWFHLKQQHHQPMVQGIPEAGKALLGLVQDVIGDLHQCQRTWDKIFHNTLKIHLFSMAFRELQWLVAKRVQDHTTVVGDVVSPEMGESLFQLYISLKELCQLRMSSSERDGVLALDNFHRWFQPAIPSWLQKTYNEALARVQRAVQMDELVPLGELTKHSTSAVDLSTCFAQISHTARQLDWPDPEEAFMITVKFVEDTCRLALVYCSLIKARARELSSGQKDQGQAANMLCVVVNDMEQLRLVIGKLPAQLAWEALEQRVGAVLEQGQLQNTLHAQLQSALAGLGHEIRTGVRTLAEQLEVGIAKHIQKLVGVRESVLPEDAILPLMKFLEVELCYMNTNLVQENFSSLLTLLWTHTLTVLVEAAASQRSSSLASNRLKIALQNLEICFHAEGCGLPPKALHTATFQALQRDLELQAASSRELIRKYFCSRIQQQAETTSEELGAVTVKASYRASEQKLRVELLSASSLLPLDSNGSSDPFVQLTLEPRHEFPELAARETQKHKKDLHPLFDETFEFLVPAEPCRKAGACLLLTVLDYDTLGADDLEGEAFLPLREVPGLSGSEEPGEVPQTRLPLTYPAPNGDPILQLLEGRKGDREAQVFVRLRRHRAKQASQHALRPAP
# Sequence (P32851 whole entry partner): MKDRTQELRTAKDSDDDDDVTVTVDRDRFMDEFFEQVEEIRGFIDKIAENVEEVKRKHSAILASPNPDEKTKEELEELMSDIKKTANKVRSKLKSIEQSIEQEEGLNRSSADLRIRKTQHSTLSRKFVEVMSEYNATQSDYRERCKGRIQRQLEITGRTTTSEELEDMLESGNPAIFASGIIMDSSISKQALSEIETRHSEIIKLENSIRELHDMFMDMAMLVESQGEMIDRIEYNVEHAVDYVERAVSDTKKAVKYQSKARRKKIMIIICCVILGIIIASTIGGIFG
# Sequence (P60879 whole entry partner): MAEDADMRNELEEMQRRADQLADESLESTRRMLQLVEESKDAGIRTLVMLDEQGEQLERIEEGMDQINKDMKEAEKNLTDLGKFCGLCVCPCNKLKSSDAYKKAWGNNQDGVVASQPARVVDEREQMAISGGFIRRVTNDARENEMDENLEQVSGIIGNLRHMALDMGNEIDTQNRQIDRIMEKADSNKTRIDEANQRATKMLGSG
# Sequence (P63044 2-116 partner): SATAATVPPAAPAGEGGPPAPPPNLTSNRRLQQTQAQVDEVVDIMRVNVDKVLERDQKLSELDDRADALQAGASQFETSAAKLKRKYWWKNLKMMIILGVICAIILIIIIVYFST
# assay notes: SNARE-dependent liposome lipid-mixing FRET assay with purified Munc13-4 + Ca2+
# Assay type: biochemical
pIC50: −log10 of the molar value.
experimental readout: pIC50

Ask | Param readout= pIC50; system= Munc13-4 (Homo sapiens, UniProt Q70J99); entry= "COc1ccc2sc(N(CCCN(C)C)C(=O)c3ccc(S(=O)(=O)N4CCCc5ccccc54)cc3)nc2c1" ; returns value.
Reply | ~5.30
